The reported numbers originate from the supplement of paper PMC10567573.

B1: ANKRD40 (parent)
chain: YQELLRVCCCELGVNPDQVEKIRK

- Variants of: B1
- Assay info: protein stability index of a GFP-peptide fusion (GPS, HEK-293T) (PSI 1-6); higher = more stable;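 note: lentivirally expressed fusions sorted by FACS into six bins by GFP to DsRed ratio, PSI derived from sequencing read proportions per bin multiplied by bin number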
- Particulars: c terminus: a fixed tail appended
protein stability index values by entry

# Sequence, protein stability index
data = [
    ("YQELLRVCCCELGVNPDQVEKIRS", 1.66),
    ("YQELLRVCCCELGVNFDQVEKIRK", 1.14),
    ("YQELLRVCCCELGVNPDQVEKIRG", 2.46),
    ("YQELLRVCCTELGVNPDQVEKIRK", 2.04),
    ("YQELLRVCCCELGVNPDQVEFIRK", 2.97),
    ("YPELLRVCCCELGVNPDQVEKIRK", 2.08),
    ("DQELLRVCCCELGVNPDQVEKIRK", 3.49),
    ("YQELLRVCCCELGVNPDQVEHIRK", 1.49),
    ("YQELLRVCCCELGVNPDQMEKIRK", 2.37),
    ("YQELLRVCCCELGVNPDQHEKIRK", 2.27),
    ("YQSLLRVCCCELGVNPDQVEKIRK", 2.26),
]
